Entry source: PubChem BioAssay (Tox21)

Target: Vitamin D3 receptor (Homo sapiens)
Assay: qHTS assay to identify small molecule agonists of the vitamin D receptor (VDR) signaling pathway (AID 743222)
Conditions: HEK293T VDR-UAS-bla, beta-lactamase FRET ratio, 16 h; series mostly up to 63.5 µM
Description: National Center for Advancing Translational Sciences [NCATS] NIH Chemical Genomics Center [NCGC] U.S. Environmental Protection Agency [EPA] National Institutes of Environmental Health Sciences [NIEHS] National Toxicology Program [NTP] U.S. Food and Drug Administration [FDA] The vitamin D receptor (VDR), a member of nuclear hormone receptor superfamily, plays a critical role in calcium homeostasis and bone metabolism. It is also involved in cell differentiation and growth, and thrombogenicity. […]
Results filed as inconclusive are left out. The source made the active and inactive calls. Calls follow the shape of the full dose curve.
Labels: active, inactive

Compound	Measurement target	Class name
Cc1ccc(OP(=O)(Oc2ccccc2)Oc2ccccc2)cc1	Vitamin D3 receptor (Homo sapiens)	inactive
CCCOCC(=Nc1ccc(Cl)cc1C(F)(F)F)n1ccnc1	Vitamin D3 receptor (Homo sapiens)	active
CCc1nn(C)c(C(=O)NCc2ccc(C(C)(C)C)cc2)c1Cl	Vitamin D3 receptor (Homo sapiens)	inactive
C[C@@H]1CC[C@@]2(OC1)O[C@H]1[C@@H](O)[C@H]3[C@@H]4CC[C@H]5C[C@@H](O[C@@H]6O[C@H](CO)[C@H](O[C@@H]7O[C@H](CO)[C@@H](O)[C@H](O[C@@H]8OC[C@@H](O)[C@H](O)[C@H]8O)[C@H]7O[C@@H]7O[C@H](CO)[C@@H](O)[C@H](O[C@@H]8O[C@H](CO)[C@@H](O)[C@H](O)[C@H]8O)[C@H]7O)[C@H](O)[C@H]6O)[C@H](O)C[C@]5(C)[C@H]4CC[C@]3(C)[C@H]1[C@@H]2C	Vitamin D3 receptor (Homo sapiens)	inactive
Cc1cc(C)cc(OP(=O)(Oc2cc(C)cc(C)c2)Oc2cc(C)cc(C)c2)c1	Vitamin D3 receptor (Homo sapiens)	inactive
CC(C)[C@H](C(=O)OC(C#N)c1cccc(Oc2ccccc2)c1)c1ccc(OC(F)F)cc1 (stereo partly drawn)	Vitamin D3 receptor (Homo sapiens)	inactive
N#CC(Cl)Cl	Vitamin D3 receptor (Homo sapiens)	inactive
O=C1NCN(c2ccccc2)C12CCN(CC1COc3ccccc3O1)CC2 (stereo not drawn)	Vitamin D3 receptor (Homo sapiens)	inactive
COP(=O)(OC)SCn1c(=O)oc2cc(Cl)cnc21	Vitamin D3 receptor (Homo sapiens)	inactive
CCCCCCCCCCCCBr	Vitamin D3 receptor (Homo sapiens)	inactive
C[C@]12Cc3nonc3C[C@@H]1CC[C@@H]1[C@@H]2CC[C@@]2(C)[C@H]1CC[C@]2(C)O	Vitamin D3 receptor (Homo sapiens)	inactive
COc1cccc(C(=O)CCN[C@@H](C)[C@H](O)c2ccccc2)c1	Vitamin D3 receptor (Homo sapiens)	inactive
BrC(Br)Br	Vitamin D3 receptor (Homo sapiens)	inactive
Nc1ccc(Sc2ccc(N)cc2)cc1	Vitamin D3 receptor (Homo sapiens)	inactive
CC(C)OC(=O)C(O)(c1ccc(Cl)cc1)c1ccc(Cl)cc1	Vitamin D3 receptor (Homo sapiens)	inactive
O=C(O)COc1nc(Cl)c(Cl)cc1Cl	Vitamin D3 receptor (Homo sapiens)	inactive
O=C(O)c1cc[c]([Hg][Cl])cc1	Vitamin D3 receptor (Homo sapiens)	inactive
C[C@H]1CC[C@@H]2[C@@H](C)[C@H]3[C@H](C[C@H]4[C@@H]5CC=C6CC(O[C@@H]7O[C@H](CO)[C@H](O)[C@H](O[C@@H]8O[C@H](CO)[C@@H](O)[C@H](O)[C@H]8O)[C@H]7O[C@H]7O[C@@H](C)[C@H](O)[C@@H](O)[C@H]7O)CC[C@]6(C)[C@H]5CC[C@]34C)N2C1 (stereo partly drawn)	Vitamin D3 receptor (Homo sapiens)	inactive
CN(C)CCc1c[nH]c2ccc(O)cc12	Vitamin D3 receptor (Homo sapiens)	inactive
Clc1ccc(CCC(Cn2ccnc2)Sc2c(Cl)cccc2Cl)cc1 (stereo not drawn)	Vitamin D3 receptor (Homo sapiens)	inactive
Clc1ccc(C(c2ccc(Cl)cc2)C(Cl)(Cl)Cl)cc1	Vitamin D3 receptor (Homo sapiens)	inactive
CNC(C)Cc1ccc2c(c1)OCO2 (stereo not drawn)	Vitamin D3 receptor (Homo sapiens)	inactive
O=[N+]([O-])c1ccc2ccc3cccc4ccc1c2c34	Vitamin D3 receptor (Homo sapiens)	inactive
FC(Cl)(Cl)Cl	Vitamin D3 receptor (Homo sapiens)	inactive
O=C(CBr)c1ccc(O)cc1	Vitamin D3 receptor (Homo sapiens)	inactive
Oc1cc(Cl)c(Cl)c(Cl)c1	Vitamin D3 receptor (Homo sapiens)	inactive
CCCN(CC)CC1COC2(CCC(C(C)(C)C)CC2)O1 (stereo not drawn)	Vitamin D3 receptor (Homo sapiens)	inactive
COc1ccc(/C(=C/C(=O)N2CCOCC2)c2ccc(Cl)cc2)cc1OC	Vitamin D3 receptor (Homo sapiens)	inactive
